- TARGET_DESC: corticotropin releasing factor 1 receptor; note: reference of the scale not given here
- PROCEDURE_SUMMARY: cell-based or functional assay
Ends that are not written are not given here.
Hi there, I'd appreciate the recorded CRF1R Emax for every entry that follows.
Record the value in %, omitting the unit from your answer.

Fill blank: measured CRF1R Emax of the binder ZGPPISIDVPTYLLRILIEIEKQEKEKQQATTNARILARV (C-terminal amide) [SEQ ID NO 169] is ____. 26

Entry to check: SQEPPISLDLPTYLLREVLEMTKADQLAQQAHSNRKLLDIA-NH2 [SEQ ID NO 106] 4.8

Now the same for ZGPPISIDLPLLLLRKMIEIEKQEKEKQQAANNRLLLDTI (C-terminal amide) [SEQ ID NO 188] 96

Note, next up: IVLSLDVPIGLLQILLEQARQRAAREQATTNARILARV-NH2 [SEQ ID NO 114] 6

Param item: ZGPPISIDLPTHLLRKMIEIEKQEKEKQQAANNRLLLDTI (C-terminal amide) [SEQ ID NO 74] 7

Same question, ZGPPISIDLPTRLLRKMIEIEKQEKEKQQAANNRLLLDTI (C-terminal amide) [SEQ ID NO 60] this time 8
